# Assay Overview: Intrinsic clearance in human pooled liver microsomes assessed per mg protein at 1 uM by LC-MS analysis
# Assay type: ADME, Microsome
# Protocol Conditions: microsomes, 1 µM
Recorded Endpoint: microsomal intrinsic clearance (µL/min)
Enter your answer as a number in µL/min; do not include the unit.

Would you kindly share the measured microsomal intrinsic clearance for Cc1cc(NC2Cc3ccc(Cl)cc3C2)n2nc(C(C)(F)F)nc2n1 (stereo not drawn) ?
10

Would you kindly share the measured microsomal intrinsic clearance for Cc1cc(NC2CCc3cc(F)ccc3C2)n2nc(C(C)(F)F)nc2n1 (stereo not drawn) ?
14

Would you kindly share the measured microsomal intrinsic clearance for `Cc1cc(NC2Cc3c(C)ccc(C)c3C2)n2nc(C(C)(F)F)nc2n1` ?
168

Would you kindly share the measured microsomal intrinsic clearance for Cc1cc(NC2Cc3cccc(C(F)(F)F)c3C2)n2nc(C(C)(F)F)nc2n1 (stereo not drawn) ?
30
